Taken from patent US20170101472A1.

The entries below come with measured kon values attached.
target: T1, recombinant human LAG3 expressed with a C-terminal myc-myc-hexahistidine tag (human, UniProt P18627 29-450); test: SPR, mAb captured, 25 C
T1 construct: also called hLAG3-mmh; hLAG3.mmh
T1 sequence (P18627 other isoform, or with tags, fused parts or gaps limits assumed): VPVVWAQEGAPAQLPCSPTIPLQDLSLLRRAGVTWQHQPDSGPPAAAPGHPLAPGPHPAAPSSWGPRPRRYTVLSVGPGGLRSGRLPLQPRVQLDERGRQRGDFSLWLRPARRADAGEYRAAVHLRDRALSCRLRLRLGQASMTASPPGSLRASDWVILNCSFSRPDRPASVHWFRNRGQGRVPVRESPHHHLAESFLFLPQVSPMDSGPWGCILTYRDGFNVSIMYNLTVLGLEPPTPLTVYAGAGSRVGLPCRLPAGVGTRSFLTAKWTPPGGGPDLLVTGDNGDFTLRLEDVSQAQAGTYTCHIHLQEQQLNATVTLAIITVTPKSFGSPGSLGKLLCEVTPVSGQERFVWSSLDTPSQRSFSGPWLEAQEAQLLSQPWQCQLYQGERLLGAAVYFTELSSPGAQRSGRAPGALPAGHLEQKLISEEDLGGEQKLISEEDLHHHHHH
Expressed in M⁻¹ s⁻¹, but write only the number.

BINDER	kon (M⁻¹ s⁻¹)
H4H15483P (antibody, human IgG4, V domains shown, H4H = human IgG4 Fc with S108P hinge mutation) VH: QVQLQQWGAGLLPPSETLSLICAVYGGSFSGYYWSWIRQPPGKGLEWIGEINHRGSTNYNPSLKSRATISVDTSKNQFSLKLSSVTAADTAVYYCSRGEDYYDSSGYSYYFDYWGQGTLVTVSS VL: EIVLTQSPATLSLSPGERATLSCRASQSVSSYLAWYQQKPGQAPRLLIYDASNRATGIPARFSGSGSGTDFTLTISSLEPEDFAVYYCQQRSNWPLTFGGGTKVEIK	188000
H4sH14813N (antibody, human IgG4 S228P, kappa, V domains shown, H4sH = modified human IgG4 Fc) VH: QVQLQQWGAGLLKPSETLSLTCAVYGGSFSGYYWNWIRQPPGKGLEWVGEISHRGSTNYNPSLKSRVTISLDTSKNQFSLKLTSVTAADTAVYYCSRDEELEFRFFDYWGQGTLVTVSS VL: EIVLTQSPATLSLSPGERATLSCRASQSVSSYLAWYQQKPGQAPRLLVYGASNRATGIPARFSGSGSGTDFTLTISSLEPEDFAFYYCQQRSNWPLTFGGGTKVEIKR	445000

Next up:
Enquiry: Consider the binder H4sH15479P (antibody, V domains shown) VH: QVQLQQWGAGLLNPSETLSLTCAVYGGAFSDYYWNWIRQPPGKGLEWIGEINHRGSTNYNPSLKSRVTISVDTSKNQFSLRMSSVTAADAAVYYCARGEDYDIWNGYYQEKWGQGTLVTVSS VL: EIVLTQSPATLSLSPGERATLSCRASQSISTYLAWYQQKPGQAPRLLIYDASKRATGIPARFSGSGSGTDFTLTISSLEPEDFVVYYCHQRSNWPLTFGGGTKVEIK . State its measured kon.
Return: 1.23e+06
